A collection of sequences and their measured Kd
# Target system: HLA-A*03:01
# Protocol details: IEDB peptide-MHC binding, purified MHC/competitive/radioactivity; filed as Kd, often an IC50 or EC50 that approximates it; bounds were set here for any values at or beyond the usual limits of such assays
# Run parameters: source organism: Vaccinia virus WR
Lab book: enter the figure in nM, no units written.

# annotated cases, reported Kd shown
GFCIPSRSK ... 973
CIPSRSKMLK ... 1.09
ITTLLNETAK ... 10.9
PSLEYGANY ... 17100
VSSLVKNVNK ... 172
AIITPVVFY ... 409

Read the next record carefully.
Ask: What does the record list as Kd for `KLFKKTDFK` ?
Result: 8.46

###

A collection of sequences and their measured Kd
# Target system: HLA-A*02:02
# Protocol details: IEDB peptide-MHC binding, purified MHC/competitive/radioactivity; filed as Kd, often an IC50 or EC50 that approximates it; bounds were set here for any values at or beyond the usual limits of such assays
# Run parameters: source organism: Vaccinia virus WR
Lab book: enter the figure in µM, no units written.

# annotated cases, reported Kd shown
YIEDELRRAA ... 0.628
MTSTRTIIL ... 1.34
KISVEKIKQT ... 1.23

Ask: What does the record list as Kd for `IVSKCIVQSV` ?
Result: 0.123

Ask: What does the record list as Kd for `TAGNKVDVDI` ?
Result: 11

Ask: What does the record list as Kd for `DTCLLAISAV` ?
Result: 2.46

Ask: What does the record list as Kd for `DIMTSTRTI` ?
Result: 3.45

Ask: What does the record list as Kd for `GLCNYGGIL` ?
Result: 0.0977

Ask: What does the record list as Kd for `NTLISSDGA` ?
Result: 7.41

###

# Target system: HLA-A*31:01
# Protocol details: IEDB peptide-MHC binding, purified MHC/competitive/radioactivity; filed as Kd, often an IC50 or EC50 that approximates it; bounds were set here for any values at or beyond the usual limits of such assays
# Run parameters: source organism: SARS coronavirus Tor2
Outcome measure: Kd (nM)
Lab book: enter the figure in nM, no units written.

Ask: What does the record list as Kd for `TTFDAEYCR` ?
Result: 103

Ask: What does the record list as Kd for `STCMMCYKR` ?
Result: 5.01

###

# Target system: HLA-A*68:01
# Protocol details: IEDB peptide-MHC binding, purified MHC/competitive/radioactivity; filed as Kd, often an IC50 or EC50 that approximates it; bounds were set here for any values at or beyond the usual limits of such assays
# Run parameters: source organism: Vaccinia virus WR
pKd: −log10 of the molar value.
Outcome measure: pKd

# annotated cases, reported pKd shown
FMRDWNSKY ... ≤ 4.11
GFCIPSRSK ... ≤ 4.41
LFDFVNEKY ... ≤ 4.58
PSLEYGANY ... ≤ 4.22
AFVRFSTDK ... ≤ 4.24

Read the next record carefully.
Ask: What does the record list as pKd for `AVRAFLLRHY` ?
Result: ≤ 4.53

###

A collection of sequences and their measured Kd
# Target system: HLA-A*24:02
# Protocol details: IEDB peptide-MHC binding, purified MHC/competitive/radioactivity; filed as Kd, often an IC50 or EC50 that approximates it; bounds were set here for any values at or beyond the usual limits of such assays
# Run parameters: source organism: SARS coronavirus Tor2

# annotated cases, reported Kd shown
YTTTIKPVSY ... ≥ 70.3 µM
IDATSTGNY ... ≥ 73.8 µM

Read the next record carefully.
Ask: Enter reported Kd observed with HLA-A*24:02 for `ITLVYKVYY`
Result: ≥ 77.6 µM
